// reported fold increase for each item listed
- System: BVDV NADL virus
- Test: CPE-based antiviral assay, BVDV NADL in MDBK cells (MTS/PMS)
- Run Parameters: sheet CSFCII#; potency relative to TO502-2403 (EC50 0.2 µM)
Format: numeric value only, no unit, no commentary.

Give recorded fold increase. `Cc1ccc(-c2cc(C(=O)Nc3nc4c(C)cccc4s3)c3ccccc3n2)o1`
0.29

For Cc1ccc2nc(NC(=O)c3ccnc4ccccc34)sc2c1 [CSFC-17, Cc1ccc2nc(sc2c1)NC(=O)c4ccnc3ccccc34] , write its fold increase.
0.002

Identify measured fold increase corresponding to `COc1ccc2nc(NC(=O)c3cc(-c4ccc(F)cc4)nc4ccccc34)sc2c1`
1.00
